tested system: Solute carrier organic anion transporter family member 1B1 (Homo sapiens, UniProt Q9Y6L6)
Sequence (Q9Y6L6 whole entry): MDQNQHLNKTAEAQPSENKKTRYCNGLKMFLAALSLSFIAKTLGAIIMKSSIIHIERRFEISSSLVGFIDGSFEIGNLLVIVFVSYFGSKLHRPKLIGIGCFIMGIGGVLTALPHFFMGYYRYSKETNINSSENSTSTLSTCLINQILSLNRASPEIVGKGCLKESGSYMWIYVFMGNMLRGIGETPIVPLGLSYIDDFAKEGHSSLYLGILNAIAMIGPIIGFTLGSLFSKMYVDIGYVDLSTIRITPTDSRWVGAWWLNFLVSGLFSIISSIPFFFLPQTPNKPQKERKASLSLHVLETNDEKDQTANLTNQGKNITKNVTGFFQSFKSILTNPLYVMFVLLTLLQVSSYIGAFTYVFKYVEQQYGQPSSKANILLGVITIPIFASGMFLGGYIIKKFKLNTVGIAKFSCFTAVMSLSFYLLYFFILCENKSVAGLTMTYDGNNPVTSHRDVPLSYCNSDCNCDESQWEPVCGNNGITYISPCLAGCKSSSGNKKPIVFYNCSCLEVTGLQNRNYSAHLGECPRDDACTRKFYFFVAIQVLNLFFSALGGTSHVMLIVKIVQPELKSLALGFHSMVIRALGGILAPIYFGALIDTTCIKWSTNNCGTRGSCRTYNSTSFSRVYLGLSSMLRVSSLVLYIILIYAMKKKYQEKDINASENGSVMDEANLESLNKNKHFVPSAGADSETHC
assay protocol: TP_TRANSPORTER: cell accumulation in OATP2-expressing HEK293 cells
Format: functional, cell-based
readout kind: Activity

O=C(O)C[C@H](O)C[C@H](O)/C=C/c1c(C2CC2)nc2ccccc2c1-c1ccc(F)cc1	substrate []
C[C@]12CC[C@@H]3c4ccc(OS(=O)(=O)O)cc4CC[C@H]3[C@@H]1CCC2=O	substrate []
CSCC[C@H](NC(=O)[C@H](Cc1ccc(OS(=O)(=O)O)cc1)NC(=O)[C@@H](N)CC(=O)O)C(=O)NCC(=O)N[C@@H](Cc1c[nH]c2ccccc12)C(=O)N[C@@H](CCSC)C(=O)N[C@@H](CC(=O)O)C(=O)N[C@@H](Cc1ccccc1)C(N)=O [SINCALIDE]	substrate []
C[C@]12CC[C@@H]3c4ccc(O)cc4CC[C@H]3[C@@H]1CC[C@@H]2O[C@@H]1O[C@H](C(=O)O)[C@@H](O)[C@H](O)[C@H]1O [ESTRADIOL 17B GLUCURONIDE]	substrate []
